Target: mP2X7 (Mus musculus (Mouse))
Sequence (Q9Z1M0 whole entry): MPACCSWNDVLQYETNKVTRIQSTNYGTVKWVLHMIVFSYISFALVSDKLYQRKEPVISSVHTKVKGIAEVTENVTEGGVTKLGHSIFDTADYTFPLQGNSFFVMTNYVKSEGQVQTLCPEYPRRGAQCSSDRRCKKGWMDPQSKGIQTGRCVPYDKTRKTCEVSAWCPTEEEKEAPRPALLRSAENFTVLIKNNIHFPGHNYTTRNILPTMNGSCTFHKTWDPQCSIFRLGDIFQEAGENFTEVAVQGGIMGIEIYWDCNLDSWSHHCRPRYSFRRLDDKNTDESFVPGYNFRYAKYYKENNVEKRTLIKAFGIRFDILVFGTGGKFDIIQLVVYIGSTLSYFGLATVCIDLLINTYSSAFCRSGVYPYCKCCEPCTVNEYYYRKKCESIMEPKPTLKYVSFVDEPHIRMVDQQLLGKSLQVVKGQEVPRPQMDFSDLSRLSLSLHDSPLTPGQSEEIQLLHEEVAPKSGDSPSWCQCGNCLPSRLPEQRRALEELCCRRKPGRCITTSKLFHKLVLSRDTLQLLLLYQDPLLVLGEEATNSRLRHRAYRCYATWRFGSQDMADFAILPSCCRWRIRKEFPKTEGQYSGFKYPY
Test: mP2X7 channel calcium-influx assay (Fluo-8 NW, FLIPR TETRA, Bz-ATP stimulation)
Experimental: Extracellular binding of Bz-ATP to P2X7 receptor opens the channel and allows Ca^2+ influx into the cells. This Ca^2+ entry was measured in HEK-293 cells stably transfected with P2X7 receptor using Screen Quest™ Fluo-8 No Wash Calcium Assay Kit (AAt Bioquest®, cat. 36316). […] Its fluorescence increases upon binding to calcium. When HEK-293/P2X7 cells are stimulated with Bz-ATP, Ca^2+ enters the cells and the fluorescence of Fluo-8 NW increases. […]
Task for the reader: assign each of the following compounds its reported pIC50.
As a rule, pIC50 stands for the negative log10 of the concentration, concentration in M.

Inquiry: Read off the recorded pIC50 for O=C(NCC(c1scnc1C(F)F)N1CCC(Oc2ccc(F)nn2)CC1)c1c(F)cccc1Cl (stereo not drawn) [Example 32]
Reply text: 7.09

Inquiry: Let me know recorded pIC50 for O=C(NCC(c1scnc1C(F)F)N1CCC(Oc2nccn3nccc23)CC1)c1c(F)cccc1Cl (stereo not drawn) [Example 44] , thanks.
Reply text: 7.51

Inquiry: Tell me pIC50 reported for O=C(NCC(c1scnc1C(F)F)N1CCC(COc2ccnc(F)n2)CC1)c1c(F)cccc1Cl (stereo not drawn) [Example 107]
Reply text: 7.62

Inquiry: Identify the reported pIC50 for the following entry. O=C(NCC(c1scnc1C(F)F)N1CCC(Oc2nccnc2F)CC1)c1c(F)cccc1Cl (stereo not drawn) [Example 34]
Reply text: 6.76

Inquiry: Identify measured pIC50 associated with N#Cc1nccnc1OCC1CCN(C(CNC(=O)c2c(F)cccc2Cl)c2scnc2C(F)F)CC1 (stereo not drawn) [Example 92]
Reply text: 7.47

Inquiry: Annotate the compound Cc1cc(COC2CCN(C(CNC(=O)c3c(F)cccc3Cl)c3scnc3C(F)F)CC2)no1 (stereo not drawn) [Example 8] with its measured pIC50.
Reply text: 6.77

Each recorded value in this set is attributed to patent US20240034737A1.
